B1: F1*; the commonest letter at each place (parent)
chain: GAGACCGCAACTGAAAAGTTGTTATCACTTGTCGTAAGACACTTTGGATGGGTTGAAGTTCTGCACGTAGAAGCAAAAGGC

# Variants of: B1
# ASSAY PROCEDURE: fraction ligated after 30 min (ligated reads / total reads); higher = more ligase activity
# ASSAY CONDITIONS: with F1*sub RNA substrate (template-directed ligation), 42 °C
Listing: fraction ligated of selected variants

{"MUTATION NOTATION": "T44C T45G", "fraction ligated": 0.191}
{"MUTATION NOTATION": "C33T A41T", "fraction ligated": 0.808}
{"MUTATION NOTATION": "C28T A48G", "fraction ligated": 0.788}
{"MUTATION NOTATION": "A24C A48G", "fraction ligated": 0.614}
{"MUTATION NOTATION": "T45G G50T", "fraction ligated": 0.0316}
{"MUTATION NOTATION": "T25C", "fraction ligated": 0.759}
{"MUTATION NOTATION": "T43G G50C", "fraction ligated": 0.273}
{"MUTATION NOTATION": "C33T G50C", "fraction ligated": 0.324}
{"MUTATION NOTATION": "C26G A56C", "fraction ligated": 0.0241}
{"MUTATION NOTATION": "C28G G46T", "fraction ligated": 0.771}
{"MUTATION NOTATION": "C26G T45G", "fraction ligated": 0.0236}
{"MUTATION NOTATION": "C40T T44C", "fraction ligated": 0.829}
{"MUTATION NOTATION": "T30A G46A", "fraction ligated": 0.809}
{"MUTATION NOTATION": "G34C A37T", "fraction ligated": 0.839}
{"MUTATION NOTATION": "A27T G55T", "fraction ligated": 0.789}
{"MUTATION NOTATION": "C40G G55A", "fraction ligated": 0.808}
{"MUTATION NOTATION": "C33A A41G", "fraction ligated": 0.823}
{"MUTATION NOTATION": "C26T A56G", "fraction ligated": 0.768}
{"MUTATION NOTATION": "C26G G31T", "fraction ligated": 0.0375}
{"MUTATION NOTATION": "C33T C40A", "fraction ligated": 0.875}
{"MUTATION NOTATION": "T32G T44G", "fraction ligated": 0.821}
{"MUTATION NOTATION": "G34A G38C", "fraction ligated": 0.825}
{"MUTATION NOTATION": "C26G T45A", "fraction ligated": 0.0653}
{"MUTATION NOTATION": "A27G G55C", "fraction ligated": 0.554}
{"MUTATION NOTATION": "G34T A37C", "fraction ligated": 0.844}
{"MUTATION NOTATION": "C26A A36T", "fraction ligated": 0.823}
{"MUTATION NOTATION": "G38T A56C", "fraction ligated": 0.745}
{"MUTATION NOTATION": "G46A T49G", "fraction ligated": 0.627}
{"MUTATION NOTATION": "A37G T49G", "fraction ligated": 0.807}
{"MUTATION NOTATION": "G31T G55C", "fraction ligated": 0.176}
{"MUTATION NOTATION": "T25C T29G", "fraction ligated": 0.783}
{"MUTATION NOTATION": "T32C A37C", "fraction ligated": 0.79}
{"MUTATION NOTATION": "T30G G34C", "fraction ligated": 0.795}
{"MUTATION NOTATION": "T25C A48G", "fraction ligated": 0.794}
{"MUTATION NOTATION": "A48G G50C", "fraction ligated": 0.0771}
{"MUTATION NOTATION": "T23C A24G", "fraction ligated": 0.794}
{"MUTATION NOTATION": "C26A T35A", "fraction ligated": 0.803}
{"MUTATION NOTATION": "A27C C42G", "fraction ligated": 0.831}
{"MUTATION NOTATION": "T23G T44G", "fraction ligated": 0.86}
{"MUTATION NOTATION": "C28G C33A", "fraction ligated": 0.757}
{"MUTATION NOTATION": "A36T G55C", "fraction ligated": 0.817}
{"MUTATION NOTATION": "A24G G46A", "fraction ligated": 0.803}
{"MUTATION NOTATION": "G31A T49A", "fraction ligated": 0.214}
{"MUTATION NOTATION": "T23A T29C", "fraction ligated": 0.797}
{"MUTATION NOTATION": "G34T T44G", "fraction ligated": 0.842}
{"MUTATION NOTATION": "A41C G47C", "fraction ligated": 0.177}
{"MUTATION NOTATION": "A39G A56C", "fraction ligated": 0.787}
{"MUTATION NOTATION": "G34A C40G", "fraction ligated": 0.833}
{"MUTATION NOTATION": "T44A A48G", "fraction ligated": 0.808}
{"MUTATION NOTATION": "T23A T45G", "fraction ligated": 0.0214}
{"MUTATION NOTATION": "G31T G47C", "fraction ligated": 0.0376}
{"MUTATION NOTATION": "T25A G31C", "fraction ligated": 0.034}
{"MUTATION NOTATION": "G34T C42T", "fraction ligated": 0.848}
{"MUTATION NOTATION": "G38T A57T", "fraction ligated": 0.812}
{"MUTATION NOTATION": "C28T C33A", "fraction ligated": 0.816}
{"MUTATION NOTATION": "C26A G38C", "fraction ligated": 0.313}
{"MUTATION NOTATION": "G55T A56C A57C", "fraction ligated": 0.00348}
{"MUTATION NOTATION": "A37T C40T", "fraction ligated": 0.842}
{"MUTATION NOTATION": "T44A T45A", "fraction ligated": 0.762}
{"MUTATION NOTATION": "A27C A57G", "fraction ligated": 0.773}
{"MUTATION NOTATION": "A41T T44A", "fraction ligated": 0.815}
{"MUTATION NOTATION": "T23A G34C", "fraction ligated": 0.813}
{"MUTATION NOTATION": "G50A A56G", "fraction ligated": 0.0277}
{"MUTATION NOTATION": "T29A G47A", "fraction ligated": 0.804}
{"MUTATION NOTATION": "G31T A37C", "fraction ligated": 0.78}
{"MUTATION NOTATION": "T25A C42A", "fraction ligated": 0.653}
{"MUTATION NOTATION": "C28A C40A", "fraction ligated": 0.809}
{"MUTATION NOTATION": "C33A G34A", "fraction ligated": 0.834}
{"MUTATION NOTATION": "A37T T45A", "fraction ligated": 0.787}
{"MUTATION NOTATION": "C28T C42A", "fraction ligated": 0.805}
{"MUTATION NOTATION": "T43C G46A", "fraction ligated": 0.789}
{"MUTATION NOTATION": "T45G G47A", "fraction ligated": 0.781}
